System: NQO1 specific enzyme activity in BEAS-2B cells (marker for NRF2 activation)
assay-remarks: BEAS-2B NQO1 MTT Assay
Type: cell-based
test-parameters: Homo sapiens, BEAS-2B, 48 h, NQO1 specific activity induction, 48 hours with compound
Give measured EC50 for each item. Keep answers brief.

Query: Please report the recorded EC50 for COC(=O)C(C)(C)C(OCc1cn(Cc2cccc(-c3ccnc(C(=O)O)c3)c2)nn1)c1ccc(C)c(CN2C[C@@H](C)Oc3ccccc3S2(=O)=O)c1 (stereo partly drawn) [Example 57] .
Response: 100 to 1000 nM

Query: Please report the recorded EC50 for CCCn1cc(CO[C@H](c2ccc(C)c(CN3C[C@@H](CC)Oc4ccccc4S3(=O)=O)c2)C(C)(C)C(=O)O)nn1 [Example 90] .
Response: < 1 nM

Query: Please report the recorded EC50 for CC[C@@H]1CN(Cc2cc(C(OCc3cn(Cc4cccc(C(=O)O)c4)nn3)C(C)(C)C(=O)O)ccc2C)S(=O)(=O)c2ccccc2O1 (stereo partly drawn) [Example 21] .
Response: 100 to 1000 nM

Query: Please report the recorded EC50 for CC[C@@H]1CN(Cc2cc(C(OCc3cn(Cc4cccc(-c5cccc(C(=O)O)c5)c4)nn3)C(C)(C)C(=O)O)ccc2C)S(=O)(=O)c2ccccc2O1 (stereo partly drawn) [Example 23] .
Response: 10 to 100 nM

Query: Please report the recorded EC50 for CCCn1cc(CO[C@H](c2ccc(C)c(CN(Cc3cccc(C(=O)O)c3)S(=O)(=O)c3cccc(C(=O)O)c3)c2)C(C)(C)C(=O)O)nn1 [Example 92] .
Response: 1000 to 10000 nM

Query: Please report the recorded EC50 for CCn1cc(COC(c2ccc(C)c(CN(CC3CCCCCC3)C(C)=O)c2)C(C)(C)C(=O)O)nn1 (stereo not drawn) [Example 54] .
Response: 100 to 1000 nM

# credit: patent US12091409B2
